Species: Rattus norvegicus
Assay: Open TG-GATES - Regimen: Daily Repeat
Format: toxicity, organism-based, Sprague-Dawley
Design: regimen Daily Repeat, gender Male, age 6 weeks
Conditions: in vivo, po, 0 mg/kg, […], tissue Plasma, route gavage, dose level Control, time 28 day
Rule: true for TBIL not less than 0.1 mg/dL, false for anything less.

>  <molecule>
C#C[C@]1(O)CC[C@H]2[C@@H]3CCc4cc(O)ccc4[C@H]3CC[C@@]21C [ETHINYL ESTRADIOL]

>  <category label>
false

$$$$
>  <molecule>
Nc1nc(N)c2nc(-c3ccccc3)c(N)nc2n1

>  <category label>
false

$$$$
>  <molecule>
CC(=O)Oc1cc(C(C)C)c(OCCN(C)C)cc1C [MOXISYLYTE]

>  <category label>
false

$$$$
>  <molecule>
C[C@]12CCC(=O)C=C1CC[C@@H]1[C@@H]2CC[C@@]2(C)[C@H]1CC[C@]2(C)O [METHYLTESTOSTERONE]

>  <category label>
false

$$$$
>  <molecule>
CCN1CCCC1CNC(=O)c1cc(S(N)(=O)=O)ccc1OC (stereo unspecified) [SULPIRIDE]

>  <category label>
false

$$$$
>  <molecule>
C[C@](N)(Cc1ccc(O)c(O)c1)C(=O)O [METHYLDOPA]

>  <category label>
false

$$$$
>  <molecule>
Oc1ncnc2[nH]ncc12 [ALLOPURINOL]

>  <category label>
true

$$$$
>  <molecule>
CCC(C)(C)C(=O)O[C@H]1C[C@@H](C)C=C2C=C[C@H](C)[C@H](CC[C@@H]3C[C@@H](O)CC(=O)O3)[C@H]21 [SIMVASTATIN]

>  <category label>
true

$$$$
>  <molecule>
CCc1oc2ccccc2c1C(=O)c1cc(I)c(O)c(I)c1 [BENZIODARONE]

>  <category label>
true

$$$$
>  <molecule>
CN1C(=O)OC(C)(C)C1=O [TRIMETHADIONE]

>  <category label>
false

$$$$
>  <molecule>
CC(C)(S)[C@@H](N)C(=O)O [PENICILLAMINE]

>  <category label>
false

$$$$
>  <molecule>
CC(=N)S [THIOACETAMIDE]

>  <category label>
true

$$$$
>  <molecule>
O=C(O)c1cccnc1 [NIACIN]

>  <category label>
false

$$$$
>  <molecule>
O=C(N[C@H](CO)[C@H](O)c1ccc([N+](=O)[O-])cc1)C(Cl)Cl [CHLORAMPHENICOL]

>  <category label>
false

$$$$

###

Organism: Rattus norvegicus
Assay: Open TG-GATES - Regimen: Daily Repeat
Type: toxicity, organism-based, Sprague-Dawley
Set-up: regimen Daily Repeat, gender Male, age 6 weeks
Details: in vivo, po, 300 mg/kg, […], tissue Plasma, route gavage, dose level Middle, time 28 day

>  <molecule>
CC(C)(S)[C@@H](N)C(=O)O

>  <reading unit>
g/dL

>  <RALB>
2.8

$$$$
>  <molecule>
CCN1CCCC1CNC(=O)c1cc(S(N)(=O)=O)ccc1OC (centres undefined) [SULPIRIDE]

>  <reading unit>
g/dL

>  <RALB>
2.7

$$$$
>  <molecule>
O=C(O)c1cccnc1

>  <reading unit>
g/dL

>  <RALB>
3

$$$$
>  <molecule>
O=C(N[C@H](CO)[C@H](O)c1ccc([N+](=O)[O-])cc1)C(Cl)Cl

>  <reading unit>
g/dL

>  <RALB>
2.8

$$$$

###

Organism: Rattus norvegicus
Assay: Open TG-GATES - Regimen: Daily Repeat
Type: toxicity, organism-based, Sprague-Dawley
Parameters: regimen Daily Repeat, gender Male, age 6 weeks
Conditions: in vivo, po, 1000 mg/kg, […], tissue Blood, route gavage, dose level High, time 7 day

>  <compound>
O=C(O)c1cccnc1 [NIACIN]

>  <reading unit>
%

>  <Neu>
16.8

$$$$
>  <compound>
CC(C)(S)[C@@H](N)C(=O)O [PENICILLAMINE]

>  <reading unit>
%

>  <Neu>
15

$$$$
>  <compound>
O=C(N[C@H](CO)[C@H](O)c1ccc([N+](=O)[O-])cc1)C(Cl)Cl [CHLORAMPHENICOL]

>  <reading unit>
%

>  <Neu>
11.4

$$$$
>  <compound>
CCN1CCCC1CNC(=O)c1cc(S(N)(=O)=O)ccc1OC (centres undefined) [SULPIRIDE]

>  <reading unit>
%

>  <Neu>
18.6

$$$$

###

Organism: Rattus norvegicus
Test: Open TG-GATES - Regimen: Single
Assay type: toxicity, organism-based, Sprague-Dawley
Design: regimen Single, gender Male, age 6 weeks
Conditions: in vivo, po, 0 mg/kg, 9 h, tissue Blood, route gavage, dose level Control

>  <compound>
CC(=O)Oc1cc(C(C)C)c(OCCN(C)C)cc1C

>  <Neu / %>
14.8

$$$$
>  <compound>
CCN1CCCC1CNC(=O)c1cc(S(N)(=O)=O)ccc1OC (centres undefined) [SULPIRIDE]

>  <Neu / %>
21.6

$$$$
>  <compound>
Nc1nc(N)c2nc(-c3ccccc3)c(N)nc2n1

>  <Neu / %>
23.2

$$$$
>  <compound>
CC(C)C(=O)Nc1ccc([N+](=O)[O-])c(C(F)(F)F)c1 [FLUTAMIDE]

>  <Neu / %>
18.6

$$$$

###

Species: Rattus norvegicus
Assay: Open TG-GATES - Regimen: Daily Repeat
Assay type: toxicity, organism-based, Sprague-Dawley
Set-up: regimen Daily Repeat, gender Male, age 6 weeks
Settings: in vivo, po, 100 mg/kg, […], tissue Plasma, route gavage, dose level Low, time 7 day
# PL per entry

>  <compound>
CCN1CCCC1CNC(=O)c1cc(S(N)(=O)=O)ccc1OC (centres undefined) [SULPIRIDE]

>  <PL [mg/dL]>
145.2

$$$$
>  <compound>
O=C(N[C@H](CO)[C@H](O)c1ccc([N+](=O)[O-])cc1)C(Cl)Cl

>  <PL [mg/dL]>
156.2

$$$$
>  <compound>
O=C(O)c1cccnc1

>  <PL [mg/dL]>
145

$$$$
>  <compound>
CC(C)(S)[C@@H](N)C(=O)O

>  <PL [mg/dL]>
167.8

$$$$

###

Species on record: Rattus norvegicus
Assay: Open TG-GATES - Regimen: Daily Repeat
Assay type: toxicity, organism-based, Sprague-Dawley
Parameters: regimen Daily Repeat, gender Male, age 6 weeks
Conditions: in vivo, po, 100 mg/kg, […], tissue Plasma, route gavage, dose level Low, time 28 day
# ALT per entry

>  <molecule>
CCN1CCCC1CNC(=O)c1cc(S(N)(=O)=O)ccc1OC (centres undefined) [SULPIRIDE]

>  <reading unit>
IU/L

>  <ALT>
36

$$$$
>  <molecule>
CC(C)(S)[C@@H](N)C(=O)O

>  <reading unit>
IU/L

>  <ALT>
35

$$$$
>  <molecule>
O=C(N[C@H](CO)[C@H](O)c1ccc([N+](=O)[O-])cc1)C(Cl)Cl

>  <reading unit>
IU/L

>  <ALT>
39.2

$$$$
>  <molecule>
O=C(O)c1cccnc1

>  <reading unit>
IU/L

>  <ALT>
39.8

$$$$

###

Species: Rattus norvegicus
Assay: Open TG-GATES - Regimen: Single
Format: toxicity, organism-based, Sprague-Dawley
Design: regimen Single, gender Male, age 6 weeks
Details: in vivo, po, 0 mg/kg, 6 h, tissue Plasma, route gavage, dose level Control
Rule: Yes for RALB not less than 3 g/dL, No for anything less.

>  <compound>
CC(=O)Oc1cc(C(C)C)c(OCCN(C)C)cc1C [MOXISYLYTE]

>  <category label>
Yes

$$$$
>  <compound>
CN1C(=O)OC(C)(C)C1=O [TRIMETHADIONE]

>  <category label>
No

$$$$
>  <compound>
CCN1CCCC1CNC(=O)c1cc(S(N)(=O)=O)ccc1OC (stereo unspecified) [SULPIRIDE]

>  <category label>
No

$$$$
>  <compound>
CC(C)C(=O)Nc1ccc([N+](=O)[O-])c(C(F)(F)F)c1 [FLUTAMIDE]

>  <category label>
Yes

$$$$
>  <compound>
CC(=N)S [THIOACETAMIDE]

>  <category label>
Yes

$$$$
>  <compound>
CCSCC[C@H](N)C(=O)O [ETHIONINE]

>  <category label>
Yes

$$$$
>  <compound>
C[C@](N)(Cc1ccc(O)c(O)c1)C(=O)O [METHYLDOPA]

>  <category label>
No

$$$$
>  <compound>
O=C(N[C@H](CO)[C@H](O)c1ccc([N+](=O)[O-])cc1)C(Cl)Cl [CHLORAMPHENICOL]

>  <category label>
No

$$$$
>  <compound>
C#C[C@]1(O)CC[C@H]2[C@@H]3CCc4cc(O)ccc4[C@H]3CC[C@@]21C [ETHINYL ESTRADIOL]

>  <category label>
No

$$$$
>  <compound>
C[C@]12CCC(=O)C=C1CC[C@@H]1[C@@H]2CC[C@@]2(C)[C@H]1CC[C@]2(C)O [METHYLTESTOSTERONE]

>  <category label>
No

$$$$
>  <compound>
Oc1ncnc2[nH]ncc12 [ALLOPURINOL]

>  <category label>
Yes

$$$$
>  <compound>
CC(C)(S)[C@@H](N)C(=O)O [PENICILLAMINE]

>  <category label>
No

$$$$
>  <compound>
CCC(C)(C)C(=O)O[C@H]1C[C@@H](C)C=C2C=C[C@H](C)[C@H](CC[C@@H]3C[C@@H](O)CC(=O)O3)[C@H]21 [SIMVASTATIN]

>  <category label>
Yes

$$$$
>  <compound>
CCc1oc2ccccc2c1C(=O)c1cc(I)c(O)c(I)c1 [BENZIODARONE]

>  <category label>
Yes

$$$$
>  <compound>
Nc1nc(N)c2nc(-c3ccccc3)c(N)nc2n1

>  <category label>
No

$$$$
